The measurements presented in this section are drawn from patent US20110002929A1.

- Target of assay: T1, human RANK-L (human, UniProt O14788 140-317, limits assumed)
- T1 construct: Soluble protein, used coated, biotinylated or labelled in ELISA, AlphaScreen, FMAT and Biacore; also called hRANK-L; soluble human RANK-L
- T1 sequence (looked up): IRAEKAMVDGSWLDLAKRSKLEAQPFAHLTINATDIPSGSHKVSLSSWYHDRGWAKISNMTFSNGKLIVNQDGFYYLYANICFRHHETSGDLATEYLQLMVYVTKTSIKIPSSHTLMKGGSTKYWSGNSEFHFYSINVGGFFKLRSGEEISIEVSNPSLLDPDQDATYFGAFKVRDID
- Method: SPR Biacore 3000, hRANK-L on CM5, 100 nM Nanobody
Here the recorded koff is given for each entry.
Response body: numeric value in s⁻¹, unit text excluded.

Use these answered entries as a reference point.
• RANKL13basic (VHH, Humanized variant of RANKL13; also called RANKL13humbasic) VHH: EVQLVESGGGLVQPGGSLRLSCAASGRTFRSYPMGWFRQAPGKGREFVASITGSGGSTYYADSVKGRFTISRDNAKNTLYLQMNSLRPEDTAVYSCAAYIRPDTYLSRDYRKYDYWGQGTLVTVSS = 0.000189
• RANKL18hum7 (VHH) VHH: EVQLVESGGGLVQPGGSLRLSCAASGRTFSRSAMGWFRQAPGKGREFVGFITGSGGTTYYADSVKGRFTISRDNAQNPLYLQMNSLRPEDTAVYYCAVYRRTYISSTYSESSEYDYWGQGTLVTVSS = 0.00027

Turning to the following binder.
query: Entry under review: RANKL13hum4 (VHH, name in Kabat numbering) VHH: EVQLVESGGGLVQPGGSLRLSCAASGRTFRSYPMGWFRQAPGKGREFVASITGSGGSTYYADSVKGRFTISRDNAKNTLYLQMNSLRPEDTAVYYCAAYIRPDTYLSRDYRKYDYWGQGTLVTVSS . Reported koff?
result: 0.000204
